Below: a set of entries, each annotated with reported IC50.
Biological target: Tyrosine-protein phosphatase non-receptor type 1 (Homo sapiens)
Sequence (P18031 whole entry): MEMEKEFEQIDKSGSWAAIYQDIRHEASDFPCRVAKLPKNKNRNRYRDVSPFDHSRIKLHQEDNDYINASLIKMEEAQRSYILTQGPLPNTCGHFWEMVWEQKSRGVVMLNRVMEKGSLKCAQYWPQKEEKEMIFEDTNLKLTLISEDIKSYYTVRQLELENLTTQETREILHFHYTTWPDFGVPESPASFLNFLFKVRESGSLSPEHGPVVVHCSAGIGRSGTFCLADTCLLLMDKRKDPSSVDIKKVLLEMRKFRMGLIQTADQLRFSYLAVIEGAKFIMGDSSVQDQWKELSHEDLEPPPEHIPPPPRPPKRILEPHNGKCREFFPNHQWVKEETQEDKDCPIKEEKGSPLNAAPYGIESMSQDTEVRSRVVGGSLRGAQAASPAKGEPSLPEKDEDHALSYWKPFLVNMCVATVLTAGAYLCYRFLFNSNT
Experiment: Inhibition of recombinant PTP1B (unknown origin) assessed as pNPP hydrolysis after 30 mins

# query.smiles, unit.symbol, IC50
rows = [
    ("CCOc1cc(NS(C)(=O)=O)c(OCC)cc1CNC(=O)Nc1ccc(C)cc1", "nM", 309),
    ("CCOc1cc(NS(C)(=O)=O)c(OCC)cc1CNC(=O)Nc1ccc(OC)cc1", "nM", 203),
    ("CCOc1cc(NS(C)(=O)=O)c(OCC)cc1CNC(=O)NCc1ccccc1", "nM", 756),
    ("CCOc1cc(NS(C)(=O)=O)c(OCC)cc1CNC(=O)Nc1ccccc1", "nM", 537),
    ("CCOc1cc(NS(C)(=O)=O)c(OCC)cc1CNC(=O)Nc1cccc(OC)c1", "nM", 2730),
    ("CCOc1cc(NS(C)(=O)=O)c(OCC)cc1CNC(=O)Nc1ccc(OC)c(OC)c1", "nM", 204),
    ("CCOc1cc(NS(C)(=O)=O)c(OCC)cc1CNC(=O)Nc1ccc(Br)cc1", "nM", 212),
]
